Assay system PacA(ECA_RS10935)-LBD (Pectobacterium atrosepticum, UniProt Q6D515); read-out recorded as Kd.
Report as a plain number; the unit µM is understood.

query: I am curious: what Kd value has been reported for "C[N+](C)(C)CCO" ?
result: 113

query: I am curious: what Kd value has been reported for "C[N+](C)(C)C[C@H](O)CC(=O)[O-]" ?
result: 20

query: I am curious: what Kd value has been reported for "C[N+](C)(C)CC(=O)O" ?
result: 7.5

====

Give measured pEC50 for each item. Keep answers brief.
# MEASURED_TARGET: PctD-Tar hybrid (Pseudomonas aeruginosa)
# Sequence (Q9HVF8 entry or part of it): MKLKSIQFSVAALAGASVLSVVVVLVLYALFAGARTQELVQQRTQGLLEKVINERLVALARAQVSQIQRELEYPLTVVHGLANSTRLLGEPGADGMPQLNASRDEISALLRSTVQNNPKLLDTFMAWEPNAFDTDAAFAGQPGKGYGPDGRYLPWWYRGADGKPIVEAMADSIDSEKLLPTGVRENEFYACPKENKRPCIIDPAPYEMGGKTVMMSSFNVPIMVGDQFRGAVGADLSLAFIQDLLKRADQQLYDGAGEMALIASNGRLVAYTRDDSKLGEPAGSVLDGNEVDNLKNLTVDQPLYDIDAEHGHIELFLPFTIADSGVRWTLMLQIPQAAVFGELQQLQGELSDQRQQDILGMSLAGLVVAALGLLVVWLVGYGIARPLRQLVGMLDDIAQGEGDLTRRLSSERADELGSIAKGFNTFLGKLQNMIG
# Sequence (P07017 267-553, further chain): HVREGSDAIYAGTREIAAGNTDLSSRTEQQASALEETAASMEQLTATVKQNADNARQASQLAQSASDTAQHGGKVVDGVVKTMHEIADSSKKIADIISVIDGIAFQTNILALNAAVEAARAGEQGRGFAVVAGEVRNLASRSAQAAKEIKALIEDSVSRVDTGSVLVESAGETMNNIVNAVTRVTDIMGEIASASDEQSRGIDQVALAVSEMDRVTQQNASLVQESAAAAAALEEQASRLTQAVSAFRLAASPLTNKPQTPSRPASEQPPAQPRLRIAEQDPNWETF
# PROTOCOL_SUMMARY: cell-based
Notebook: values listed as pEC50 are -log10 of the concentration (mol/L).

query: I am curious: what pEC50 value has been reported for "C[N+](C)(C)CC(=O)O" ?
result: 3.82

query: I am curious: what pEC50 value has been reported for "C[N+](C)(C)CCO" ?
result: 7.40

query: I am curious: what pEC50 value has been reported for "C[N+](C)(C)C[C@H](O)CC(=O)[O-]" ?
result: 4.51
